Test: Exposure (AUC) in the rat corneal angiogenesis study
Type: in vivo
Settings: female, CD, rat, in vivo, 0.03 mg/kg, Table 4, HCl salt Run # 1, 0.03 mg/kg daily
Structures can show the parent of a compound that is named as a salt.
outcome_measure: AUC
Answer format: value, then unit.

Please report the recorded AUC for COc1cc2nccc(Oc3ccc4c(c3)OCCN4C(=O)Nc3cc(C)on3)c2cc1OC [Compound A (HCl Salt)] . 0.162 µg·h/mL

###

Experiment: Exposure (AUC) in the rat corneal angiogenesis study
Format: in vivo
Settings: female, CD, rat, in vivo, 0.1 mg/kg, Table 5, HCl salt Run #2, 0.1 mg/kg daily
Counter-ions that a name gives are not always drawn.
outcome_measure: AUC (ng·h/mL)
State the answer as a number, implicitly in ng·h/mL.

Please report the recorded AUC for COc1cc2nccc(Oc3ccc4c(c3)OCCN4C(=O)Nc3cc(C)on3)c2cc1OC [Compound A (HCl Salt)] . 954

###

Assay: Exposure (AUC) in the rat corneal angiogenesis study
Assay type: in vivo
Settings: female, CD, rat, in vivo, oral, 0.3 mg/kg, Table 2, free base, 0.3 mg/kg daily
outcome_measure: AUC (ng·h/mL)
State the answer as a number, implicitly in ng·h/mL.

Please report the recorded AUC for COc1cc2nccc(Oc3ccc4c(c3)OCCN4C(=O)Nc3ccon3)c2cc1OC [Reference Compound 1, reference compound] . 205

###

Biological target: KDR (Homo sapiens)
Sequence (P35968 20-1356, species assumed): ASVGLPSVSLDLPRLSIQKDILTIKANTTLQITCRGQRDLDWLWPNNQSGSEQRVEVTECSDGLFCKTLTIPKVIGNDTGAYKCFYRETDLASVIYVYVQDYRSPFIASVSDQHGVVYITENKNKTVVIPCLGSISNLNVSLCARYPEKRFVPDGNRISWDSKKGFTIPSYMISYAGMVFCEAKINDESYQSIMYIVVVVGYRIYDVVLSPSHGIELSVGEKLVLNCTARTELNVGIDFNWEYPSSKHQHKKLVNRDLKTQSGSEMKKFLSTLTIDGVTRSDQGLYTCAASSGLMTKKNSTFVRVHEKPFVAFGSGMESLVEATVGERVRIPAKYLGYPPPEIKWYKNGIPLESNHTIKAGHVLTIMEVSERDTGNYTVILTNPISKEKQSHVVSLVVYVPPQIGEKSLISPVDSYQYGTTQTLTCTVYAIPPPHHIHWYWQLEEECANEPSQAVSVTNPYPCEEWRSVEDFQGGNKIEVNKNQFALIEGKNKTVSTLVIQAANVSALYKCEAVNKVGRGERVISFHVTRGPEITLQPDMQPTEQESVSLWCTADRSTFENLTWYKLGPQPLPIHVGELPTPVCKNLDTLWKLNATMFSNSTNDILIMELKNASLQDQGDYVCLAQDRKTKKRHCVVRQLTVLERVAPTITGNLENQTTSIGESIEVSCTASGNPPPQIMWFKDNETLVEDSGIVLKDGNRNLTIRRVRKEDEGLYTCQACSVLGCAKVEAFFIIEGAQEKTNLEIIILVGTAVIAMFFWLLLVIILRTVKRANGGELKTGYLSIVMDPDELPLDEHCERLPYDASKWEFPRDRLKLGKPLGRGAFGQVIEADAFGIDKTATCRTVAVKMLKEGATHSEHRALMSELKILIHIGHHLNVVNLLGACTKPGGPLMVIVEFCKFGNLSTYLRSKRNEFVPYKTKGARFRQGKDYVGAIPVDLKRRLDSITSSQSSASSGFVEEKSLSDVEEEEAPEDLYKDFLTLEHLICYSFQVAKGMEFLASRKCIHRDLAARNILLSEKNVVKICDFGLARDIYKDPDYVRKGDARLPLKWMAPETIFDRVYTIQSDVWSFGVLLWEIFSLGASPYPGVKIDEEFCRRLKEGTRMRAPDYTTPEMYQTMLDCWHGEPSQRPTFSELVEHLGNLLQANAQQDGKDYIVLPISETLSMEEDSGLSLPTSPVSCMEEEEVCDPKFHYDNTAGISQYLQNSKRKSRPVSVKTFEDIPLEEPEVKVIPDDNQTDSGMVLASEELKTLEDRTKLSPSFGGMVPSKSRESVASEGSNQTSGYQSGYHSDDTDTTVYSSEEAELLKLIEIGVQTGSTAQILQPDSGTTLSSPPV
Structures can show the parent of a compound that is named as a salt.
As shown below, each of these compounds has a reported IC50 value.
State the answer as a number, implicitly in nM.

COc1cc2nccc(Oc3ccc4c(c3)OCCN4C(=O)Nc3cc(CO)on3)c2cc1OC [hydrochloride]	1.04

Turning now to a further record.
Query IC50 on KDR (Homo sapiens) for COc1cc2c(Oc3ccc4c(c3)OCCN4C(=O)Nc3cc(C)on3)cc[n+]([O-])c2cc1OC [Compound A N-oxide] 5000

###

Experiment: Exposure (AUC) in the rat corneal angiogenesis study
Type: in vivo
Conditions: female, CD, rat, in vivo, 0.3 mg/kg, Table 4, HCl salt Run # 1, 0.3 mg/kg daily
Structures can show the parent of a compound that is named as a salt.
outcome_measure: AUC (ng·h/mL)
State the answer as a number, implicitly in ng·h/mL.

Please report the recorded AUC for COc1cc2nccc(Oc3ccc4c(c3)OCCN4C(=O)Nc3cc(C)on3)c2cc1OC [Compound A (HCl Salt)] . 1190

###

As shown below, each of these molecules has a reported half-life value.
Assay: Rat pharmacokinetic profile
Conditions: in vivo, po, 2 mpk, P.O., read-out: Rat P.O. T1/2 (converted)

COc1cc2nccc(Oc3ccc4c(c3)OCCN4C(=O)Nc3cc(C)on3)c2cc1OC	2 h

Please report the recorded half-life for COc1cc2nccc(Oc3ccc4c(c3)OCCN4C(=O)Nc3ccon3)c2cc1OC [Reference Compound 1, reference compound] . 2.4 h

###

Experiment: Rat pharmacokinetic profile
Details: in vivo, po, 2 mg/kg, P.O., 2 mpk, read-out: Rat P.O. (2 mpk) AUC0-t
outcome_measure: AUC(0-t) (ng·h/mL)
State the answer as a number, implicitly in ng·h/mL.

COc1cc2nccc(Oc3ccc4c(c3)OCCN4C(=O)Nc3cc(C)on3)c2cc1OC [Compound A]	2800

Turning now to a further record.
Please report the recorded AUC(0-t) for COc1cc2nccc(Oc3ccc4c(c3)OCCN4C(=O)Nc3ccon3)c2cc1OC [Reference Compound 1, reference compound] . 1700

This collection of values is drawn from patent US7795254B2.
